target: T1, Recombinant murine glypican-3 (aa 25-557), R&D Systems (murine, UniProt Q8CFZ4 25-557); test: SPR, Biacore T100, GPC3-His immobilised, 1:1 fit
T1 construct: also called muGPC3; Mu GPC3-His
T1 sequence (Q8CFZ4 25-557 limits assumed, form in doubt): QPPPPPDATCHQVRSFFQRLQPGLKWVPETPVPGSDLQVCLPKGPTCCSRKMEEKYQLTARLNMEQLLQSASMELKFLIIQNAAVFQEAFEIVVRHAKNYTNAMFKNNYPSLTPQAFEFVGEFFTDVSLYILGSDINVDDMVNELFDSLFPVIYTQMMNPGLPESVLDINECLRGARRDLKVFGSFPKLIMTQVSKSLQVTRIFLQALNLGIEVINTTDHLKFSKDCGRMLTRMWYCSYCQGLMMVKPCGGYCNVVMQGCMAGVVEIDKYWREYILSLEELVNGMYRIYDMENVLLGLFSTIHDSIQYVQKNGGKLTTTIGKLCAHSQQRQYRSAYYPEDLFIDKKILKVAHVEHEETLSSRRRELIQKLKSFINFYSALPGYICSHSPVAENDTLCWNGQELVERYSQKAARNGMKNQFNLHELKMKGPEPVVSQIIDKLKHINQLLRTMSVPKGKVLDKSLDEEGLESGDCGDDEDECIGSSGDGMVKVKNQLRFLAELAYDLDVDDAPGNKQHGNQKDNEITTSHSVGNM
Give measured koff for each item. Keep answers brief.

Returns the measured koff for the input binder. Input: ADX_6077_F02 DG→EG mutant, alkylated (designed binder, C-terminal cysteine alkylated, also called P1-055673) GVSDVPRDLEVVAATPTSLLISWSDDYHAHRYYRITYGETGGNSPVQEFTVPGEHVTATISGLKPGVDYTITVYAVTYEGEKAATDWSISINYRTPC
0.0021 s⁻¹

Report koff for ADX_6077_F02 DG→DS mutant, alkylated (designed binder, C-terminal cysteine alkylated, also called P1-055667) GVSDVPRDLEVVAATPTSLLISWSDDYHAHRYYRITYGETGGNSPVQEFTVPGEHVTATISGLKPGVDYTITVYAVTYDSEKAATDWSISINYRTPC please.
0.0015 s⁻¹

What does the record list as koff for ADX_6077_F02 DG→DA mutant, alkylated (designed binder, C-terminal cysteine alkylated, also called P1-055660; PI-055660) GVSDVPRDLEVVAATPTSLLISWSDDYHAHRYYRITYGETGGNSPVQEFTVPGEHVTATISGLKPGVDYTITVYAVTYDAEKAATDWSISINYRTPC ?
0.0017 s⁻¹

Look up koff for this binder: ADX_6077_F02 alkylated (designed binder, C-terminal cysteine (of PC) alkylated with iodoacetamide, also called alkylated (capped) Adnectin; alkylated parent) MGVSDVPRDLEVVAATPTSLLISWSDDYHAHRYYRITYGETGGNSPVQEFTVPGEHVTATISGLKPGVDYTITVYAVTYDGEKAATDWSISINYRTPCHHHHHH
0.00049 s⁻¹

Ref: patent US20230312686A1
